Tested on: SgK110
Conditions: concentration: 1 μM,replicates: in singlicate; n = 1;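 also: KINOMEscan kinase panel screen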
measurement type: %Inh
Express your answer as a number followed by its unit.

Name the recorded %Inh of `CC(C)S(=O)(=O)N1CCN(Cc2ccc3c(c2)nc(NC(=O)c2ccsc2)n3C[C@H](O)c2ccccc2)CC1` , assay system SgK110. 0%

Name the recorded %Inh of `Cc1ccc(C(=O)Nc2ccc(Oc3ccc4nc(NC(=O)C5CC5)cn4c3)c(F)c2)c(=O)n1-c1ccccc1` , assay system SgK110. 0%

Name the recorded %Inh of `COc1cccc(C2=C(Nc3cccc(Cl)c3)C(=O)NC2=O)c1` , assay system SgK110. 0%

Name the recorded %Inh of CCNCC(Cc1ccccc1)NC(=O)c1cc(Br)c(-c2ccnc3[nH]ccc23)s1.Cl.Cl (stereo not shown) , assay system SgK110. 79%

Name the recorded %Inh of `CC(=O)Nc1ccc(-c2cc3ncnc(SCC(=O)O)c3s2)cc1` , assay system SgK110. 0%

Name the recorded %Inh of COc1cc(Nc2nccc(N3CCC(NC(=O)c4cccc(C#N)c4)C3)n2)cc(OC)c1OC (stereo not shown) , assay system SgK110. 0%

Name the recorded %Inh of `Cn1ccc2ncnc(Oc3ccc(NC(=O)Nc4ccnc(C(F)(F)F)c4)c(Cl)c3)c21` , assay system SgK110. 47%

====

Can you tell me %Inh for the items I'm about to list?
System: SIK2
Details: concentration: 1 μM,replicates: in singlicate; n = 1
Answer in %, number only, no unit symbol.

Assign %Inh to the following record: N#Cc1cccc(C(=O)NC2CCN(c3ccnc(Nc4ccc(F)cc4)n3)C2)c1 (stereo not shown) 0

Assign %Inh to the following record: `Cn1ccc2ncnc(Oc3ccc(NC(=O)Nc4cnn(C(C)(C)C)c4)c(Cl)c3)c21` 10

Assign %Inh to the following record: `C[C@@H](Oc1cc(-n2cnc3ccc(-c4ccncc4)cc32)sc1C(N)=O)c1ccccc1Cl` 0

Assign %Inh to the following record: `O=C(Nc1cccc(Oc2ccc3nccn3n2)c1)Nc1cccc(C(F)(F)F)c1` 16

====

Can you tell me %Inh for the items I'm about to list?
Tested on: VRK2
Conditions: concentration: 1 μM,replicates: in singlicate; n = 1
Answer in %, number only, no unit symbol.

Assign %Inh to the following record: `NC(=O)Nc1sc(-c2ccc(F)cc2)cc1C(N)=O` 0

Assign %Inh to the following record: `C[C@@H]1CNc2c(sc3ccc4nc(-c5ccc(O)cc5)ccc4c23)C(=O)N1` 17

Assign %Inh to the following record: `OCCn1cc(-c2cnc3nnn(Cc4ccc5ncccc5c4)c3n2)cn1` 0

Assign %Inh to the following record: CC(C(=O)NC1CCN(c2ccnc(Nc3ccc(F)cc3)n2)C1)c1ccc(Cl)cc1 (stereo not drawn) 0

Assign %Inh to the following record: `O=C(NOCC1CC1)c1cc(Br)c(F)c(F)c1Nc1ccc(I)cc1Cl` 0

Assign %Inh to the following record: COc1ccc(Nc2nccc(N3CCC(NC(=O)c4cccc(C#N)c4)C3)n2)cc1 (stereo not drawn) 0

====

Test system: MAP3K3
Conditions: concentration: 1 μM,replicates: in singlicate; n = 1
Classify as follows. Reported %Inh greater than or equal to 20%: criterion met. Reported %Inh below: criterion not met.

Record `Cn1ccc2ncnc(Oc3ccc(NC(=O)Nc4cccc(C(F)(F)F)c4)c(F)c3)c21` ; criterion: %Inh no lower than 20%. Met? criterion not met

Record `CNC(=O)c1ccccc1Nc1nc(Nc2cccc(CS(C)(=O)=O)c2)ncc1C.O=CO` ; criterion: %Inh no lower than 20%. Met? criterion met

Record `CN(c1ccccc1CNc1nc(Nc2ccc3c(c2)CC(=O)N3)ncc1C(F)(F)F)S(C)(=O)=O` ; criterion: %Inh no lower than 20%. Met? criterion met

Record `C[C@@H]1CNc2c(sc3ccc4nc(-c5ccncc5)ccc4c23)C(=O)N1` ; criterion: %Inh no lower than 20%. Met? criterion not met

Record `Cc1ccc(Nc2ccnc(Nc3ccc4c(c3)CS(=O)(=O)C4)n2)cc1O.Cl` ; criterion: %Inh no lower than 20%. Met? criterion met

Record `Cc1ccc2c(-c3ccnc(Nc4ccc(C(F)(F)F)cc4)n3)cnn2n1` ; criterion: %Inh no lower than 20%. Met? criterion not met

Record `Cc1ccn2nc(-c3ccc(F)cc3)c(-c3ccncc3)c2c1.Cl` ; criterion: %Inh no lower than 20%. Met? criterion not met

====

Tested on: DAPK2
Conditions: concentration: 1 μM,replicates: in singlicate; n = 1
measurement type: %Inh (%)
Answer in %, number only, no unit symbol.

Assign %Inh to the following record: `CN(c1cccc(CNc2nc(Nc3ccc4c(c3)CC(=O)N4)ncc2C(F)(F)F)c1)S(C)(=O)=O` 0

Assign %Inh to the following record: `Cc1cccc2c(-c3ccncc3)c(-c3ccc(F)cc3)nn12.Cl` 0

Assign %Inh to the following record: `Cn1ccc2ncnc(Oc3ccc(NC(=O)Nc4cnn(C(C)(C)C)c4)c(Cl)c3)c21` 0

Assign %Inh to the following record: CCNCC(Cc1ccccc1)NC(=O)c1cc(Br)c(-c2ccnc3[nH]ccc23)s1.Cl.Cl (centres unmarked) 9

Assign %Inh to the following record: `NC(=O)c1ccc(-c2cc3ncnc(SCC(=O)O)c3s2)cc1` 0

Assign %Inh to the following record: `Cn1ccc2ncnc(Oc3ccc(NC(=O)Nc4ccnc(C(F)(F)F)c4)c(Cl)c3)c21` 0

Assign %Inh to the following record: `CC(C)S(=O)(=O)N1CCN(Cc2ccc3c(c2)nc(NC(=O)c2ccsc2)n3C[C@H](O)c2ccccc2)CC1` 0

Assign %Inh to the following record: `CSc1nccc(-c2c(-c3ccc(F)cc3)ncn2CCCN2CCOCC2)n1.Cl` 0

====

Test system: AXL
Conditions: concentration: 1 μM,replicates: in singlicate; n = 1
Can you tell me %Inh for the items I'm about to list?
Express your answer as a number followed by its unit.

Assign %Inh to the following record: COC(=O)Nc1nc2cc(Oc3ccc(NC(=O)Nc4cc(C(F)(F)F)ccc4Cl)cc3)ccc2[nH]1.Cl [GW697465] 98%

Assign %Inh to the following record: O=C(Nc1n[nH]c2cc(-c3ccco3)ccc12)C1CC1 [SB-737447] 0%

Assign %Inh to the following record: COc1cccc(C2=C(Nc3cccc(Cl)c3)C(=O)NC2=O)c1 [SB-341556] 12%

Assign %Inh to the following record: Cc1cccc2c(-c3ccncc3)c(-c3ccc(F)cc3)nn12.Cl [GW461487] 0%

Assign %Inh to the following record: `C[C@@H]1CCN(C(=O)N2CCCC2)C[C@@H]1N(C)c1ncnc2[nH]ccc12` 7%

====

Tested on: MYLK4
Details: concentration: 1 μM,replicates: in singlicate; n = 1
Classify as follows. Reported %Inh greater than or equal to 10%: MET. Reported %Inh below: NOT MET.

Record `CNC(=O)c1ccccc1Nc1nc(Nc2cccc(CS(C)(=O)=O)c2)ncc1C.O=CO` ; criterion: %Inh no lower than 10%. Met? MET

Record COc1cccc(CNC(=O)NC2CCN(c3ccnc(Nc4cc(OC)c(OC)c(OC)c4)n3)C2)c1 (stereo not drawn) ; criterion: %Inh no lower than 10%. Met? NOT MET

Record `O=c1[nH]cc(-c2ccc(O)cc2)c2sc(-c3ccncc3)cc12` ; criterion: %Inh no lower than 10%. Met? MET

Record `Cc1n[nH]c2cc(Nc3ccnc(Nc4cccc(CN5CCOCC5)c4)n3)ccc12` ; criterion: %Inh no lower than 10%. Met? MET

Record `CC(=O)Nc1nc2cnc(Nc3cc(NC(=O)c4cccc(CC(C)(C)C#N)c4)ccc3C)nc2s1` ; criterion: %Inh no lower than 10%. Met? MET

Record `Cn1cc(-c2cccc3c(N)c(C(N)=O)nnc23)cn1` ; criterion: %Inh no lower than 10%. Met? MET

Record `O=C(Nc1n[nH]c2cc(-c3ccco3)ccc12)C1CC1` ; criterion: %Inh no lower than 10%. Met? NOT MET

Record Cc1nnc(-c2ccc3occ(-c4ccc(S(C)=O)cc4)c3n2)o1 (stereo not drawn) ; criterion: %Inh no lower than 10%. Met? NOT MET

Record `CC(=O)Nc1ccc(-c2cc3ncnc(SCC(=O)O)c3s2)cc1` ; criterion: %Inh no lower than 10%. Met? MET

====

Can you tell me %Inh for the items I'm about to list?
System: RPS6KA5(Kin.Dom.1-N-terminal)
Details: concentration: 1 μM,replicates: in singlicate; n = 1
Answer in %, number only, no unit symbol.

Assign %Inh to the following record: `Cc1n[nH]c2cc(Nc3ccnc(Nc4cccc(CN5CCOCC5)c4)n3)ccc12` 0

Assign %Inh to the following record: COc1cccc(CNC(=O)NC2CCN(c3ccnc(Nc4cc(OC)c(OC)c(OC)c4)n3)C2)c1 (stereo not drawn) 0

Assign %Inh to the following record: `COc1cc2c(Nc3ccc(NC(=O)c4ccccc4)cc3)ncnc2cc1OCCCN1CCOCC1` 0

Assign %Inh to the following record: `Cc1ccc(Nc2ccnc(Nc3ccc4c(c3)CS(=O)(=O)C4)n2)cc1O.Cl` 0

Assign %Inh to the following record: `NC(=O)c1ccc(-c2cc3ncnc(SCC(=O)O)c3s2)cc1` 7

Assign %Inh to the following record: `CSc1nccc(-c2c(-c3ccc(F)cc3)ncn2CCCN2CCOCC2)n1.Cl` 0

Assign %Inh to the following record: `CC(=O)Nc1ccc(-c2cc3ncnc(SCC(=O)O)c3s2)cc1` 0

Assign %Inh to the following record: CCNCC(Cc1ccccc1)NC(=O)c1cc(Br)c(-c2ccnc3[nH]ccc23)s1.Cl.Cl (stereo not drawn) 43

Assign %Inh to the following record: `Cc1ccn2nc(-c3ccc(F)cc3)c(-c3ccncc3)c2c1.Cl` 44
